Molecular target: Metabotropic glutamate receptor 4 (Homo sapiens)
Test: Activity at human mGluR4 expressed in CHO cells assessed as fold potentiation of glutamate-induced calcium flux at 30 uM by fluorescence assay relative to control
Sequence (Q14833 whole entry, looked up): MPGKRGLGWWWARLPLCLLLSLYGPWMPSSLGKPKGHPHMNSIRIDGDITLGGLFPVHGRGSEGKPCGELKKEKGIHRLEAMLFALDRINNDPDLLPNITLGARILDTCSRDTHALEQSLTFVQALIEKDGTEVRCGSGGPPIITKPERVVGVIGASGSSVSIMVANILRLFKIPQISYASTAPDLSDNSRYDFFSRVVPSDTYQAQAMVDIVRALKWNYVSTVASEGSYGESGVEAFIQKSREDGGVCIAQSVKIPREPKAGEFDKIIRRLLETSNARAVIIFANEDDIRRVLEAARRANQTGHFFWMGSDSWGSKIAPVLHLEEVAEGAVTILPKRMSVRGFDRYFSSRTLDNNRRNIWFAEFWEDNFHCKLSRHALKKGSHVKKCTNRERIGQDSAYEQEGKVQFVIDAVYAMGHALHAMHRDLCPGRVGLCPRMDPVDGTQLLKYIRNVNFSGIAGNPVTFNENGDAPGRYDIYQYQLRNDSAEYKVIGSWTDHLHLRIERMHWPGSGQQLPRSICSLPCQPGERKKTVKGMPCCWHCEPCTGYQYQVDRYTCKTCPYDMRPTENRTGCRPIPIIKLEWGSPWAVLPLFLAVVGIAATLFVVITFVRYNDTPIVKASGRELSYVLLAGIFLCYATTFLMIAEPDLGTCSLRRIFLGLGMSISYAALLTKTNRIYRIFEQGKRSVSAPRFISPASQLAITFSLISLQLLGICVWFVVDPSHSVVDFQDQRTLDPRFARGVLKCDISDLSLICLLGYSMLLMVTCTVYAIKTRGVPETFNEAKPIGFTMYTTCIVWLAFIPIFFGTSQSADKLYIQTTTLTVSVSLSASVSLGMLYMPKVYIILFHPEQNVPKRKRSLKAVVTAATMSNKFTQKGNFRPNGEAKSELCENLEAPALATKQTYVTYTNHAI
Reported fold change (FC) values follow for various compounds
measurement_type: fold change (FC)

compound	subject_of_test	measurement_type	reported_measurement
Cc1ccc(-n2ncc3c(N4CCC(n5c(=O)[nH]c6ccccc65)CC4)ncnc32)c(C)c1	Metabotropic glutamate receptor 4 (Homo sapiens)	fold change (FC)	2.4
Cc1ccc(-n2ncc3c(N4CCCC(C)C4)ncnc32)c(C)c1 (stereo not given)	Metabotropic glutamate receptor 4 (Homo sapiens)	fold change (FC)	11.8
Cc1ccc(-n2ncc3c(N4CCCC(C(F)(F)F)C4)ncnc32)c(C)c1 (stereo not given)	Metabotropic glutamate receptor 4 (Homo sapiens)	fold change (FC)	9.9
CC1CCCN(c2ncnc3c2cnn3-c2ccccc2Cl)C1 (stereo not given)	Metabotropic glutamate receptor 4 (Homo sapiens)	fold change (FC)	2.7
Cc1ccc(-n2ncc3c(N4CC(C)OC(C)C4)ncnc32)c(C)c1 (stereo not given)	Metabotropic glutamate receptor 4 (Homo sapiens)	fold change (FC)	3.5

----------
Biological target: Metabotropic glutamate receptor 4 (Homo sapiens, UniProt Q14833)
Test: Activity at human mGluR4 expressed in CHO coexpressing Gqi5 assessed as potentiation of glutamate-induced calcium flux by fluorescence assay
Assay type: functional
Sequence (Q14833 whole entry): as the sequence (Q14833 whole entry, looked up) above
pEC50: −log10 of the molar value.
measurement_type: pEC50

molecule	subject_of_test	reported_measurement
Cc1ccc(-n2ncc3c(N4CCCC(C)C4)ncnc32)c(C)c1 (stereo unspecified)	Metabotropic glutamate receptor 4 (Homo sapiens, UniProt Q14833)	5.34
